The measured values listed here are drawn from ChEMBL document CHEMBL1147104.

Assay: Serum trough levels in Wistar rat pup at 10 mg/kg of body weight/day, ip after 96 hrs by ELISA
Format: ADME, organism-based
Parameters: dose 10 mg/kg, route intraperitoneal
Settings: read-out: Cmin
Recorded endpoint: concentration at 96 h (ng/mL)
Reply with just the number (in ng/mL).

[ask] Fill in reported concentration at 96 h for this entry: OC(Cn1cncn1)(Cn1cncn1)c1ccc(F)cc1F [FLUCONAZOLE]
[reply] 1030

====

Test: Serum trough levels in Wistar rat pup at 10 mg/kg of body weight/day, ip after 48 hrs by ELISA
Type: ADME, organism-based
Parameters: dose 10 mg/kg, route intraperitoneal
Conditions: read-out: Cmin
Recorded endpoint: concentration at 48 h

[ask] Please give measured concentration at 48 h of the following entry: OC(Cn1cncn1)(Cn1cncn1)c1ccc(F)cc1F [FLUCONAZOLE]
[reply] 2500 ng/mL

====

Experiment: Serum trough levels in Wistar rat pup at 10 mg/kg of body weight/day, ip after 24 hrs by ELISA
Format: ADME, organism-based
Parameters: dose 10 mg/kg, route intraperitoneal
Details: read-out: Cmin
Recorded endpoint: concentration at 24 h (ng/mL)
// return numeric value only (unit: ng/mL, not printed)

[ask] Determine its reported concentration at 24 h: `OC(Cn1cncn1)(Cn1cncn1)c1ccc(F)cc1F`
[reply] 1550
